Published pKi for Coagulation factor XI (Homo sapiens), assembled from different documents, is shown next.
Answers are plain numbers, as −log10 of the molar value.

Below are worked cases with known answers.
1. O=C(O)CCOC(=O)Nc1ccc(-c2cnnc([C@H](Cc3ccccc3)NC(=O)CCc3ccccc3-n3cnnn3)c2)cc1    5.47
2. Cc1ccc(NC(=O)[C@H](Cc2ccccc2)n2cnc(-c3cc(Cl)ccc3-n3cc(Cl)nn3)cc2=O)nn1    6.49
3. C[C@@H]1CCC[C@H](N2CCC(c3cc(Cl)ccc3-n3cc(Cl)nn3)=CC2=O)c2cc(ccn2)-c2c(cnn2CCOC(C)(C)C)NC1=O    8.96
4. COc1ccc(-n2cc(C(F)(F)F)nn2)c(-c2cc(=O)n([C@H]3CCC[C@@H](C)C(=O)Nc4ccc(F)cc4-c4cncc3c4)cn2)c1    6.85
5. N=C(N)c1ccc(CNC(=O)[C@H](CCC(=O)O)NC(=O)[C@@H](CCc2ccc(O)cc2)NS(=O)(=O)Cc2ccccc2)cc1    7.55

Fill in pKi for each of the 5 compounds listed.
1. COC(=O)Nc1ccc2c(c1)NC(=O)C(C)CCCC(c1ccc(-c3c(F)ccc(Cl)c3F)c[n+]1[O-])c1cccc-2c1 (single isomer, unassigned)
2. O=C(NCc1ccccn1)[C@H](Cc1ccccc1)n1cnc(-c2cc(Cl)ccc2-n2cc(Cl)nn2)cc1=O
3. N=C(N)c1ccc(CNC(=O)[C@H](CCC2CCNCC2)NC(=O)[C@H](NS(=O)(=O)Cc2ccccc2)c2ccccc2)cc1
4. COC(=O)Nc1ccc2c(c1)NC(=O)CCCCC(c1ccc(-c3c(F)ccc(Cl)c3F)cn1)c1cccc-2c1 (stereo not shown)
5. NC(=O)c1ccc(C(=O)N[C@@H](Cc2ccccc2)c2ccc(-c3cc(Cl)ccc3-n3cnnn3)c[n+]2[O-])s1

8.46
6.03
6.00
6.23
8.89

###

Published pKi for UniProtKB P03951, assembled from different documents, is shown next.
One number for each entry, as −log10 of the molar value.

Below are worked cases with known answers.
1) COC(=O)Nc1ccc2c(c1)NC(=O)CCCC[C@H](c1ccc(-c3c(F)cccc3C(F)(F)F)c[n+]1[O-])c1nc-2c(C)[nH]1 (single isomer, unassigned)    9.44
2) COC(=O)Nc1ccc2c(c1)NC(C(N)=O)C(C)CCC[C@H](NC(=O)/C=C/c1cc(Cl)ccc1-n1cnnn1)c1nc-2c[nH]1 (stereo partly shown)    6.53
3) COC(=O)Nc1ccc2c(c1)NC(=O)CCCC[C@H](c1ccc(-c3c(F)ccc(Cl)c3F)c[n+]1[O-])c1cc-2ccn1 (single isomer, unassigned)    9.47
4) COC(=O)Nc1ccc(-c2cc([C@H](CC3CCCN(S(C)(=O)=O)C3)NC(=O)/C=C/c3cc(Cl)ccc3-n3cnnn3)n[nH]c2=O)cc1 (stereo partly shown)    6.75
5) COC(=O)Nc1ccc2c(c1)NC(=O)CCCCC(c1ccc(-c3c(F)cccc3OC(F)F)c[n+]1[O-])c1nc-2c(C2CC2)[nH]1 (single isomer, unassigned)    9.68

Fill in pKi for each of the 3 compounds listed.
1. C[C@@H]1CCC[C@H](N2CCC(c3c(F)ccc(Cl)c3F)=CC2=O)c2cc(ccn2)-c2c(cnn2C)NC1=O
2. COC(=O)Nc1ccc(-c2cc(C(Cc3ccccc3)NC(=O)/C=C/c3cc(Cl)ccc3-n3cnnn3)c(Cl)nn2)cc1 (single isomer, unassigned)
3. O=C1CCCC[C@H](c2ccc(-c3cc(Cl)ccc3-n3cnnn3)cn2)c2cccc(c2)-c2cc(F)ccc2N1

1: 8.00; 2: 8.70; 3: 7.65

Fill in pKi for each of the 5 compounds listed.
1. N=C(N)c1ccc(CNC(=O)[C@H](CCCCNC(=O)OCc2ccccc2)NC(=O)[C@@H](CO)NS(=O)(=O)Cc2ccccc2)cc1
2. C[C@@H]1CCC[C@H](n2cnc(-c3cc(Cl)ccc3-n3cc(C(F)(F)F)nn3)cc2=O)c2cccc(c2)C[C@H](CC#N)NC1=O
3. Cc1nc2ccc(CNC(=O)[C@H](Cc3ccccc3)n3cnc(-c4cc(Cl)ccc4-n4cc(Cl)nn4)cc3=O)cc2[nH]1
4. COC(=O)Cc1ccc(NC(=O)[C@H](Cc2ccccc2)n2cnc(-c3cc(Cl)ccc3-n3cc(Cl)nn3)cc2=O)cc1
5. O=C(O)CN1CCN2c3cccc(c3)[C@@H](n3cnc(-c4cc(Cl)ccc4-n4cc(Cl)nn4)cc3=O)CCCCCNC(=O)[C@H]2C1

[6.52, 6.55, 6.33, 7.05, 8.30]

Item: Cn1ncc2cc(CNC(=O)[C@H](Cc3ccccc3)n3cnc(-c4cc(Cl)ccc4-n4cc(Cl)nn4)cc3=O)ccc21 | pKi: 6.20
